Target: GalNAc(b1-3)Gal(a1-4)Gal(b1-4)GlcNAc
Assay: glycan array binding signal (z-score within array); higher = stronger binding
Conditions: glycan notation: IUPAC condensed, linker removed
This excerpt belongs to a sample that is enriched for the strongest signals.
glycan array binding signal (z-score) for assorted binders
Note: the reply should be a number with no unit written.

Below, each entry is followed by its recorded glycan array binding signal (z-score) result.
BINDER	ENDPOINT NAME	RECORDED VALUE
CTLY 1 (Homo sapiens), Q6ZS10 (protein) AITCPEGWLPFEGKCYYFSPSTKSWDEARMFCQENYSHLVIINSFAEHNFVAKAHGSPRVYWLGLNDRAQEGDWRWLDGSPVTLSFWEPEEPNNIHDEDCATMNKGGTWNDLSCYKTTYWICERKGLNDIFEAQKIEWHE	glycan array binding signal (z-score)	-0.243
AT3G44510(29) (Arabidopsis thaliana), F4J341 (protein) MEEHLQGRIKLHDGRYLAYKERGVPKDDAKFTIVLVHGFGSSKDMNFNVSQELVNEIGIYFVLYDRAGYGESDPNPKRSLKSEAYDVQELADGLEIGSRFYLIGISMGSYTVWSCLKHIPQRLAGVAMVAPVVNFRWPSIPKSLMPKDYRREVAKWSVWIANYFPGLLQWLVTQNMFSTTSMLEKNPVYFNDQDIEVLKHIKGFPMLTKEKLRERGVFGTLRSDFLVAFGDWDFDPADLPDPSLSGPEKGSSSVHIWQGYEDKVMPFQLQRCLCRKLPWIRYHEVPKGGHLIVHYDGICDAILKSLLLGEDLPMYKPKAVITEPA	glycan array binding signal (z-score)	3.41
pTFF2 (Sus scrofa), P01359 (protein) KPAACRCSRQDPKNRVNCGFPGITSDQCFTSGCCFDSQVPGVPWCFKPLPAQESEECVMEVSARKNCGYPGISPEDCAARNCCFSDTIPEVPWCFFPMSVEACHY	glycan array binding signal (z-score)	-0.4

Next up:
Which glycan array binding signal (z-score) reading was recorded for the binder AICL (Homo sapiens), Q92478 (protein) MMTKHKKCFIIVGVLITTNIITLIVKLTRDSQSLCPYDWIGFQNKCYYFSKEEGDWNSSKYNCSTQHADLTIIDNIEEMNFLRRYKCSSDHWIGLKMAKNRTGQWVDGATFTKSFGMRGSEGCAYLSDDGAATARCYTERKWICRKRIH ?
-0.363
